Biological target: Full length Human FAK (Flag-His-TEV-FAK1) (Homo sapiens, UniProt Q05397)
Construct: Full length Human FAK was expressed using baculovirus in Sf9 cells; made in house; host or cells: baculovirus in Sf9 cells
Sequence (Q05397 whole entry): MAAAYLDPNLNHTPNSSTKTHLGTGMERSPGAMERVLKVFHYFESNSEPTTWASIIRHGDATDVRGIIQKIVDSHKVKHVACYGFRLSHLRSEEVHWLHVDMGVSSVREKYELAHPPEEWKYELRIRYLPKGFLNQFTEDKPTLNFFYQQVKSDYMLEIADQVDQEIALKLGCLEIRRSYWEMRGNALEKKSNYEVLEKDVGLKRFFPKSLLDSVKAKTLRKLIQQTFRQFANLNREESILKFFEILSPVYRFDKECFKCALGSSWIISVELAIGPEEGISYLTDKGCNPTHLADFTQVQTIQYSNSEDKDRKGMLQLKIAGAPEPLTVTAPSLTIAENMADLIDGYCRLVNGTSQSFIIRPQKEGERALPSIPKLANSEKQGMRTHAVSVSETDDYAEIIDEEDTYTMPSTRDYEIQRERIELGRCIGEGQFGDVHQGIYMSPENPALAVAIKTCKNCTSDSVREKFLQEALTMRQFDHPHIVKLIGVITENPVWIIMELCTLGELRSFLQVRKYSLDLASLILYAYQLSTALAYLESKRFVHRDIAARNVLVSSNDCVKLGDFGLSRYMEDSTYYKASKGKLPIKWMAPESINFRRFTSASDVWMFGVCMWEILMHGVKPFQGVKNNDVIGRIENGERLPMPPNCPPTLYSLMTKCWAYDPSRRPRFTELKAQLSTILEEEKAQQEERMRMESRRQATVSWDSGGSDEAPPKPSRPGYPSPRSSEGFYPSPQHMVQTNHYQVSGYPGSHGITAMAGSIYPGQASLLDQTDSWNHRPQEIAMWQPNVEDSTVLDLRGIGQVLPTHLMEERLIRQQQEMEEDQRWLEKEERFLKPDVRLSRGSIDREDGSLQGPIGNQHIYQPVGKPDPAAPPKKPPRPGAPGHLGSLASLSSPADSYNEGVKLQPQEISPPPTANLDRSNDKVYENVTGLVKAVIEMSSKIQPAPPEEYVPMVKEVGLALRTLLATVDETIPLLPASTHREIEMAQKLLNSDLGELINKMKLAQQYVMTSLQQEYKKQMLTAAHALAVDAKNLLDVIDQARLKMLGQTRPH
Assay: Biochemical assay for FAK activity, Assay 2: LANCE Ultra ULight peptide phosphorylation, 665 nm/615 nm ratio
Conditions: Flag-His-TEV-FAK1, 10 μM ATP, 30 min pre-incubation; read-out: Assay 2 FAK H 31284A TRF PXC50 (converted)
Each entry below lists one item and its recorded log10 IC50 value.
Record value = log10 of IC50 given in nM.

Reference set (5 entries):
[
  {
    "COMPOUND": "CCn1nc(CCO)cc1Nc1cc(Nc2c(F)cccc2C(=O)NC)c(C(F)(F)F)cn1",
    "TARGET": "Full length Human FAK (Flag-His-TEV-FAK1) (Homo sapiens, UniProt Q05397)",
    "log10 IC50": 0.30
  },
  {
    "COMPOUND": "CCn1nc(C)cc1Nc1cc(Nc2ccccc2C(=O)NC)c(C2CC2)cn1",
    "TARGET": "Full length Human FAK (Flag-His-TEV-FAK1) (Homo sapiens, UniProt Q05397)",
    "log10 IC50": 1.50
  },
  {
    "COMPOUND": "CONC(=O)c1ccccc1Nc1cc(Nc2cc(C)nn2C)ncc1Cl",
    "TARGET": "Full length Human FAK (Flag-His-TEV-FAK1) (Homo sapiens, UniProt Q05397)",
    "log10 IC50": 0.20
  },
  {
    "COMPOUND": "CNC(=O)c1cc(F)ccc1Nc1cc(Nc2cc(C)nn2C)ncc1Cl [Example 7]",
    "TARGET": "Full length Human FAK (Flag-His-TEV-FAK1) (Homo sapiens, UniProt Q05397)",
    "log10 IC50": 1.00
  },
  {
    "COMPOUND": "CNC(=O)c1cccc(F)c1Nc1cc(Nc2cnn(C)c2C)ncc1Cl",
    "TARGET": "Full length Human FAK (Flag-His-TEV-FAK1) (Homo sapiens, UniProt Q05397)",
    "log10 IC50": 1.10
  }
]

Query :: Tell us which log10 IC50 value is on record for `CCn1nc(C(=O)NC)cc1Nc1cc(Nc2ccccc2C(=O)NC)c(Cl)cn1`
Result :: 1.60

Query :: Tell us which log10 IC50 value is on record for `CONC(=O)c1ccccc1Nc1cc(Nc2cc(C)nn2C(C)C)ncc1Cl`
Result :: 0.30

* * *

Each entry below lists one item and its recorded IC50 value.
Target: Full length Human FAK (Flag-His-TEV-FAK1) (Homo sapiens, UniProt Q05397)
Construct: Full length Human FAK was expressed using baculovirus in Sf9 cells; made in house; host or cells: baculovirus in Sf9 cells
Test: Biochemical assay for FAK activity, Assay 2: LANCE Ultra ULight peptide phosphorylation, 665 nm/615 nm ratio
Settings: Flag-His-TEV-FAK1, 10 μM ATP, 30 min pre-incubation; read-out: Assay 2 FAK H 31284A TRF PXC50 (converted)
Only the number, expressed in µM, is required.

Reference set (2 entries):
[
  {
    "STRUCTURE_NOTATION": "CNC(=O)c1ccccc1Nc1cc(Nc2cc(C(C)(C)C)nn2C)ncc1Cl",
    "IC50, µM": 0.02
  },
  {
    "STRUCTURE_NOTATION": "CNC(=O)c1ccccc1Nc1cc(Nc2cc(-c3ccccc3)nn2C)ncc1Cl",
    "IC50, µM": 0.0158
  }
]

API: the following record is the query input.
Query :: Tell us which IC50 value is on record for `CCn1nccc1Nc1cc(Nc2ccc(N3CCN(CCO)CC3)cc2C(=O)NC)c(Cl)cn1`
Result :: 0.00501
